- System: NCI-H2228
- assay procedure: relative viability (nuclei count vs DMSO), 5 days (fraction); higher = more cells survive
- condition notes: first compound 0.5 µM
For each record, write down the corresponding relative viability.
Answers are plain numbers.

Below, each entry is followed by its recorded relative viability result.
{"columns": ["compound", "relative viability"],
 "data": [
  ["Nc1ccn([C@@H]2O[C@H](CO)[C@@H](O)[C@@H]2O)c(=O)n1 [Cytarabine] + C[C@]1(O)C[C@@H](c2nc(-c3ccc4ccc(-c5ccccc5)nc4c3)c3c(N)nccn32)C1 [Linsitinib] (partner 1 µM)", 0.0885],
  ["Nc1ccn([C@@H]2O[C@H](CO)[C@@H](O)[C@@H]2O)c(=O)n1 [Cytarabine] + CC(=O)Nc1cccc(-n2c(=O)n(C3CC3)c(=O)c3c(Nc4ccc(I)cc4F)n(C)c(=O)c(C)c32)c1 [Trametinib] (partner 0.02 µM)", 0.116]
]}

Value sought for every listed compound: relative viability.
1. Nc1ccn([C@@H]2O[C@H](CO)[C@@H](O)[C@@H]2O)c(=O)n1 [Cytarabine] + COc1cc2c(Oc3ccc(NC(=O)C4(C(=O)Nc5ccc(F)cc5)CC4)cc3F)ccnc2cc1OCCCN1CCOCC1 [Foretinib] (partner 0.25 µM)
2. COc1cc2nccc(Oc3ccc(NC(=O)Nc4cc(C)on4)c(Cl)c3)c2cc1OC [Tivozanib] + N=C(N)NC(=N)NCCc1ccccc1 [Phenformin] (partner 250 µM)
3. Nc1ccn([C@@H]2O[C@H](CO)[C@@H](O)[C@@H]2O)c(=O)n1 [Cytarabine] + COc1cccc2cc(-c3nc([C@H]4CC[C@H](C(=O)O)CC4)n4ncnc(N)c34)[nH]c12 [OSI-027] (partner 0.5 µM)

-- reply
1. 0.166
2. 0.406
3. 0.0984
